Tested on: Fibroblast
Protocol: Incucyte cell viability with human fibroblast; note: unitless GR value; below 1 slowed growth and below 0 cell loss
Assay type: toxicity, cell-based
Experimental conditions: 0 h, 10 µM, compound concentration 10 uM, replicate number 2
Quick rule: Growth Rate of at least 0.2 means 1.0, below that means 0.0.

input: Hi team, for COc1ccc2c(O[C@@H]3C[C@H]4C(=O)N[C@]5(C(=O)NS(=O)(=O)C6(C)CC6)CC5/C=C\CCCCC[C@H](NC(=O)c5ccn(C)n5)C(=O)N4C3)cc(OC(C)C)nc2c1C (stereo partly specified) , is the recorded Growth Rate at or above 0.2?
output: 1.0

input: Hi team, for CC(C)c1cnn2c(NCc3ccccc3)cc(NCCCCCCN)nc12.Cl , is the recorded Growth Rate at or above 0.2?
output: 0.0

input: Hi team, for CC(C)(C#N)c1cc(Cn2cncn2)cc(C(C)(C)C#N)c1 , is the recorded Growth Rate at or above 0.2?
output: 0.0

input: Hi team, for COc1cc(C(C)C)c(Oc2cnc(NC(CO)CO)nc2N)cc1I , is the recorded Growth Rate at or above 0.2?
output: 1.0

input: Hi team, for COc1cc(C(N)=O)ccc1Nc1ncc2c(n1)N(CCC(C)C)[C@H](C)C(=O)N2C , is the recorded Growth Rate at or above 0.2?
output: 0.0

input: Hi team, for CC(C)Oc1ccc(-c2cnc3c(-c4ccnc5ccccc45)cnn3c2)cc1 , is the recorded Growth Rate at or above 0.2?
output: 0.0

input: Hi team, for Nc1n[nH]c2nc(-c3ccc(NS(=O)(=O)c4cccc(Cl)c4Cl)cc3)cnc12 , is the recorded Growth Rate at or above 0.2?
output: 0.0

input: Hi team, for NC(=O)C1CCCc2c1[nH]c1ccc(Cl)cc21 (stereo unspecified) , is the recorded Growth Rate at or above 0.2?
output: 1.0

input: Hi team, for c1cc(-c2cnn3cc(-c4ccc(N5CCNCC5)cc4)cnc23)c2cccnc2c1 , is the recorded Growth Rate at or above 0.2?
output: 0.0

input: Hi team, for CN(C)C(=O)Cn1cc(-c2ccc(-c3nnc4ccccn34)cc2)cn1 , is the recorded Growth Rate at or above 0.2?
output: 0.0

input: Hi team, for CCCCCCCCCCCCCC(=O)O[C@@H]1[C@@H](C)[C@@]2(O)[C@@H](C=C(CO)C[C@]3(O)C(=O)C(C)=C[C@@H]23)[C@@H]2C(C)(C)[C@]12OC(C)=O [PHORBOL MYRISTATE ACETATE] , is the recorded Growth Rate at or above 0.2?
output: 0.0

input: Hi team, for CCN1C(=CC(C)=O)Sc2ccc(OC)cc21 , is the recorded Growth Rate at or above 0.2?
output: 0.0

input: Hi team, for CN1CCN(c2ccc(-n3cc(-c4ccncc4OCC4CCNCC4)cn3)cc2)CC1 , is the recorded Growth Rate at or above 0.2?
output: 1.0

input: Hi team, for CCn1c(=O)c2c(C)c(C(=O)N3CCC(O)CC3)sc2n(CCC(F)(F)F)c1=O , is the recorded Growth Rate at or above 0.2?
output: 1.0

input: Hi team, for CS(=O)(=O)NCC[C@H](NC(=O)c1cncc2c1cnn2-c1ccc(F)cc1)c1ccnc(S(C)(=O)=O)c1 , is the recorded Growth Rate at or above 0.2?
output: 0.0

input: Hi team, for CC(C)(O)C(=O)N1CCN(c2ccc(C(F)(F)F)c(C3=C(c4c[nH]c5ccccc45)C(=O)NC3=O)c2)CC1 , is the recorded Growth Rate at or above 0.2?
output: 0.0
